- System: 945468-187-T-J3-PDC spheroids with HUVEC/MSC, viability
- PROTOCOL_TEXT: Anticancer human tumor 945468-187-T-J3-PDC patient-derived rectal carcinoma cell line growth inhibition [PI3K]
- EXPERIMENTAL_CONDITIONS: second compound 3.16 µM; first compound 0.01 µM; hits give low values
EXPERIMENTAL_READOUT: viability, T/C (%)
Numbers only, in %.

CCN1CCN(Cc2ccc(Nc3ncc(F)c(-c4cc(F)c5nc(C)n(C(C)C)c5c4)n3)nc2)CC1 + Cc1nc(NC(=O)N2CCCC2C(N)=O)sc1-c1ccnc(C(C)(C)C(F)(F)F)c1 = 97.5

Could you tell me viability, T/C for each of these compounds? They are listed below.
1. CC(C)n1nc(-c2ccc3oc(N)nc3c2)c2c(N)ncnc21 + CC(Nc1ncnc2nc[nH]c12)c1cc2cccc(Cl)c2c(=O)n1-c1ccccc1
2. CC(C)n1nc(-c2ccc3oc(N)nc3c2)c2c(N)ncnc21 + Cc1nc(NC(=O)N2CCCC2C(N)=O)sc1-c1ccnc(C(C)(C)C(F)(F)F)c1

101
77.2

====

Provide the recorded viability, T/C for the entries that follow.
- Tested on: 945468-187-T-J3-PDC spheroids with HUVEC/MSC, viability
- PROTOCOL_TEXT: Anticancer human tumor 945468-187-T-J3-PDC cell line growth inhibition [PI3K]
- EXPERIMENTAL_CONDITIONS: second compound 0.0316 µM; first compound 0.03 µM; hits give low values
Give bare numbers, in %.

Could you tell me viability, T/C for each of these compounds? They are listed below.
1. Cn1cnc2c(F)c(Nc3ccc(Br)cc3Cl)c(C(=O)NOCCO)cc21 + CC(Nc1ncnc2nc[nH]c12)c1cc2cccc(Cl)c2c(=O)n1-c1ccccc1
2. Cn1cnc2c(F)c(Nc3ccc(Br)cc3Cl)c(C(=O)NOCCO)cc21 + CC(Nc1ccc2c(c1)OCCn1cc(N3C(=O)OCC3C(F)F)nc1-2)C(N)=O
3. Cn1cnc2c(F)c(Nc3ccc(Br)cc3Cl)c(C(=O)NOCCO)cc21 + COc1c(OCCCN2CCOCC2)ccc2c3n(c(=NC(=O)c4cnc(N)nc4)nc12)CCN3

103
119
67.4

Form: compound = Cn1cnc2c(F)c(Nc3ccc(Br)cc3Cl)c(C(=O)NOCCO)cc21 + Cc1nc(NC(=O)N2CCCC2C(N)=O)sc1-c1ccnc(C(C)(C)C(F)(F)F)c1 ; viability, T/C = 124

====

- Test system: 945468-187-T-J3-PDC spheroids with HUVEC/MSC, viability
- PROTOCOL_TEXT: Anticancer human tumor 945468-187-T-J3-PDC cell line growth inhibition [PI3K];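 note: spheroids exposed to agents for 7 days before viability read; 100% = DMSO vehicle control viability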
- EXPERIMENTAL_CONDITIONS: second compound 1 µM; first compound 10 µM; hits give low values
EXPERIMENTAL_READOUT: viability, T/C (%)
Give bare numbers, in %.

CC(Cn1ccc(-c2ccc(C#N)c(Cl)c2)n1)NC(=O)c1cc(C(C)O)[nH]n1 (stereo unspecified) + Cc1nc(NC(=O)N2CCCC2C(N)=O)sc1-c1ccnc(C(C)(C)C(F)(F)F)c1 = 98.8

Could you tell me viability, T/C for each of these compounds? They are listed below.
1. Cn1ncc(Cl)c1-c1cc(C(=O)NC(CN)Cc2cccc(F)c2)sc1Cl (stereo unspecified) + Cc1nc(NC(=O)N2CCCC2C(N)=O)sc1-c1ccnc(C(C)(C)C(F)(F)F)c1
2. CC(Cn1ccc(-c2ccc(C#N)c(Cl)c2)n1)NC(=O)c1cc(C(C)O)[nH]n1 (stereo unspecified) + CC(Nc1ncnc2nc[nH]c12)c1cc2cccc(Cl)c2c(=O)n1-c1ccccc1
3. CNC(=O)c1ccc(N2C(=S)N(c3ccc(C#N)c(C(F)(F)F)c3)C(=O)C2(C)C)cc1F + Cc1nc(NC(=O)N2CCCC2C(N)=O)sc1-c1ccnc(C(C)(C)C(F)(F)F)c1
4. C=CC(=O)N1CCN(c2nc(=O)n(-c3c(C)ccnc3C(C)C)c3nc(-c4c(O)cccc4F)c(F)cc23)C(C)C1 (stereo unspecified) + COc1c(OCCCN2CCOCC2)ccc2c3n(c(=NC(=O)c4cnc(N)nc4)nc12)CCN3
5. C[C@@H](NC(=O)c1ncnc(N)c1Cl)c1ncc(C(=O)Nc2cc(C(F)(F)F)c(Cl)cn2)s1 + CC(Nc1ncnc2nc[nH]c12)c1cc2cccc(Cl)c2c(=O)n1-c1ccccc1
6. C[C@@H](NC(=O)c1ncnc(N)c1Cl)c1ncc(C(=O)Nc2cc(C(F)(F)F)c(Cl)cn2)s1 + CC(Nc1ccc2c(c1)OCCn1cc(N3C(=O)OCC3C(F)F)nc1-2)C(N)=O
7. Cn1ncc(Cl)c1-c1cc(C(=O)NC(CN)Cc2cccc(F)c2)sc1Cl (stereo unspecified) + CC(Nc1ncnc2nc[nH]c12)c1cc2cccc(Cl)c2c(=O)n1-c1ccccc1

1: 21.1; 2: 94.8; 3: 108; 4: 19; 5: 86.5; 6: 62.4; 7: 28.5

====

- Tested on: 945468-187-T-J3-PDC spheroids with HUVEC/MSC, viability
- PROTOCOL_TEXT: Anticancer human tumor 945468-187-T-J3-PDC cell line growth inhibition [PI3K];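 note: spheroids exposed to agents for 7 days before viability read; 100% = DMSO vehicle control viability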
- EXPERIMENTAL_CONDITIONS: second compound 0.316 µM; first compound 0.1 µM; hits give low values
Binary label based on viability, T/C with cut-off 90%: below gives true, not below gives false.

I wonder whether CC(=O)c1c(C)c2cnc(Nc3ccc(N4CCNCC4)cn3)nc2n(C2CCCC2)c1=O + CC(Nc1ncnc2nc[nH]c12)c1cc2cccc(Cl)c2c(=O)n1-c1ccccc1 has viability, T/C below 90%. Can you tell?
false

I wonder whether CC(=O)c1c(C)c2cnc(Nc3ccc(N4CCNCC4)cn3)nc2n(C2CCCC2)c1=O + Cc1nc(NC(=O)N2CCCC2C(N)=O)sc1-c1ccnc(C(C)(C)C(F)(F)F)c1 has viability, T/C below 90%. Can you tell?
false

I wonder whether CCCS(=O)(=O)Nc1ccc(F)c(C(=O)c2c[nH]c3ncc(-c4ccc(Cl)cc4)cc23)c1F + COc1c(OCCCN2CCOCC2)ccc2c3n(c(=NC(=O)c4cnc(N)nc4)nc12)CCN3 has viability, T/C below 90%. Can you tell?
true

I wonder whether CC1(C)CCC(Nc2ncc(C(F)(F)F)c(-c3c[nH]c4c(P(C)(C)=O)c(C#N)ccc34)n2)CN1 (stereo unspecified) + CC(Nc1ncnc2nc[nH]c12)c1cc2cccc(Cl)c2c(=O)n1-c1ccccc1 has viability, T/C below 90%. Can you tell?
true

I wonder whether CC1(C)CCC(CN2CCN(c3ccc(C(=O)NS(=O)(=O)c4ccc(NCC5CCOCC5)c([N+](=O)[O-])c4)c(Oc4cnc5[nH]ccc5c4)c3)CC2)=C(c2ccc(Cl)cc2)C1 + CC(Nc1ncnc2nc[nH]c12)c1cc2cccc(Cl)c2c(=O)n1-c1ccccc1 has viability, T/C below 90%. Can you tell?
false

I wonder whether CC(Cn1ccc(-c2ccc(C#N)c(Cl)c2)n1)NC(=O)c1cc(C(C)O)[nH]n1 (stereo unspecified) + CC(Nc1ncnc2nc[nH]c12)c1cc2cccc(Cl)c2c(=O)n1-c1ccccc1 has viability, T/C below 90%. Can you tell?
false

I wonder whether C[C@@H](NC(=O)c1ncnc(N)c1Cl)c1ncc(C(=O)Nc2cc(C(F)(F)F)c(Cl)cn2)s1 + CC(Nc1ccc2c(c1)OCCn1cc(N3C(=O)OCC3C(F)F)nc1-2)C(N)=O has viability, T/C below 90%. Can you tell?
false

====

- System: 945468-187-T-J3-PDC spheroids with HUVEC/MSC, viability
- PROTOCOL_TEXT: Anticancer human tumor 945468-187-T-J3-PDC cell line growth inhibition [PI3K];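 note: spheroids exposed to agents for 7 days before viability read; 100% = DMSO vehicle control viability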
- EXPERIMENTAL_CONDITIONS: compound 10 µM; hits give low values
Provide the recorded viability, T/C for the entries that follow.

These solved cases illustrate the format of a correct answer.
C[C@@H](NC(=O)c1ncnc(N)c1Cl)c1ncc(C(=O)Nc2cc(C(F)(F)F)c(Cl)cn2)s1 = 108% [middle of 4 runs]
CC(C)NCC(C(=O)N1CCN(c2ncnc3c2C(C)CC3O)CC1)c1ccc(Cl)cc1 (centres undefined) = 39.3% [middle of 4 runs]
CNC(=O)c1ccc(N2C(=S)N(c3ccc(C#N)c(C(F)(F)F)c3)C(=O)C2(C)C)cc1F = 109% [middle of 4 runs]

Proceed to the following item.
Form: compound = C#Cc1c(F)ccc2cc(O)cc(-c3ncc4c(N5CC6CCC(C5)N6)nc(OCC56CCCN5CC(F)C6)nc4c3F)c12 (centres undefined) ; viability, T/C = 113% [middle of 4 runs]

====

- System: 945468-187-T-J3-PDC spheroids with HUVEC/MSC, viability
- PROTOCOL_TEXT: Anticancer human tumor 945468-187-T-J3-PDC cell line growth inhibition [PI3K];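 note: spheroids exposed to agents for 7 days before viability read; 100% = DMSO vehicle control viability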
- EXPERIMENTAL_CONDITIONS: second compound 0.1 µM; first compound 0.001 µM; hits give low values
EXPERIMENTAL_READOUT: viability, T/C (%)
Give bare numbers, in %.

CC(=O)c1c(C)c2cnc(Nc3ccc(N4CCNCC4)cn3)nc2n(C2CCCC2)c1=O + COc1c(OCCCN2CCOCC2)ccc2c3n(c(=NC(=O)c4cnc(N)nc4)nc12)CCN3 = 48.6
CC(C)n1nc(-c2ccc3oc(N)nc3c2)c2c(N)ncnc21 + Cc1nc(NC(=O)N2CCCC2C(N)=O)sc1-c1ccnc(C(C)(C)C(F)(F)F)c1 = 109

Could you tell me viability, T/C for each of these compounds? They are listed below.
1. CC(C)n1nc(-c2ccc3oc(N)nc3c2)c2c(N)ncnc21 + COc1c(OCCCN2CCOCC2)ccc2c3n(c(=NC(=O)c4cnc(N)nc4)nc12)CCN3
2. CC(=O)c1c(C)c2cnc(Nc3ccc(N4CCNCC4)cn3)nc2n(C2CCCC2)c1=O + CC(Nc1ncnc2nc[nH]c12)c1cc2cccc(Cl)c2c(=O)n1-c1ccccc1
3. Cn1ncnc1[C@H]1c2n[nH]c(=O)c3cc(F)cc(c23)N[C@@H]1c1ccc(F)cc1 + COc1c(OCCCN2CCOCC2)ccc2c3n(c(=NC(=O)c4cnc(N)nc4)nc12)CCN3
4. CC(C)n1nc(-c2ccc3oc(N)nc3c2)c2c(N)ncnc21 + CC(Nc1ccc2c(c1)OCCn1cc(N3C(=O)OCC3C(F)F)nc1-2)C(N)=O
5. CC(=O)c1c(C)c2cnc(Nc3ccc(N4CCNCC4)cn3)nc2n(C2CCCC2)c1=O + Cc1nc(NC(=O)N2CCCC2C(N)=O)sc1-c1ccnc(C(C)(C)C(F)(F)F)c1
6. Cn1ncnc1[C@H]1c2n[nH]c(=O)c3cc(F)cc(c23)N[C@@H]1c1ccc(F)cc1 + CC(Nc1ncnc2nc[nH]c12)c1cc2cccc(Cl)c2c(=O)n1-c1ccccc1

34
100
55.3
107
107
87.8

This collection of values is drawn from PubChem BioAssay AID1963968.
